Tested on: astro (control astrocytes)
Assay: Drug repurposing screens with cells derived from glioblastoma tumor samples (AID 1345199); also: nearly all actives have a fitted effect of over 40% in size
Conditions: viability, ATP luminescence, 48 h; series mostly up to 45.9 µM
Inconclusive results are not listed. The source made the active and inactive calls. Calls follow the shape of the dose curve; as a rule, active = well fitted inhibition curve with a large enough effect; inconclusive = small, poorly fitted or top-dose-only effect; inactive = flat fitted curve, though single readings scatter.
Classes used: class 1 for active, class 0 for inactive

{"columns": ["Compound", "Label"],
 "data": [
  ["CO", "class 0"],
  ["OCCOCCOCCO", "class 0"],
  ["C[C@H](N)C(=O)N[C@@H](C)P(=O)(O)O", "class 0"],
  ["CC(=O)Nc1c(I)c(C(=O)N[C@H]2C(O)O[C@H](CO)[C@@H](O)[C@@H]2O)c(I)c(N(C)C(C)=O)c1I (stereo partly specified)", "class 0"],
  ["Cc1ncc(COP(=O)(O)O)c(CN)c1O", "class 0"],
  ["CC1=C[C@H](O)CC(C)(C)[C@H]1/C=C/C(C)=C/C=C/C(C)=C/C=C/C=C(C)/C=C/C=C(C)/C=C/C1=C(C)C[C@@H](O)CC1(C)C", "class 0"],
  ["O=C(OC[C@H]1O[C@](O)(COC(=O)c2cccnc2)[C@@H](OC(=O)c2cccnc2)[C@@H]1OC(=O)c1cccnc1)c1cccnc1", "class 0"],
  ["C[C@H](CCC(=O)O)[C@H]1CC[C@H]2[C@@H]3[C@H](O)C[C@@H]4C[C@H](O)CC[C@]4(C)[C@H]3C[C@H](O)[C@]12C", "class 0"],
  ["c1ccc2ccccc2c1", "class 0"],
  ["CC(=O)OCC(=O)[C@@]1(O)CC[C@H]2[C@@H]3CCC4=CC(=O)CC[C@]4(C)C3=CC[C@@]21C", "class 0"],
  ["O=C(NCCNCC(O)COc1ccc(O)cc1)N1CCOCC1 (stereo unspecified)", "class 0"],
  ["NC(Cc1ccccc1)C(=O)O (stereo unspecified)", "class 0"],
  ["O=C(O)[C@H]1C(=CCO)O[C@H]2CC(=O)N12", "class 0"],
  ["Cc1ncc(C[n+]2csc(CCO)c2C)c(N)n1", "class 0"],
  ["C(=C\\c1ccncc1)/c1ccccc1", "class 0"],
  ["Cc1cc(-c2ccc(N=Nc3c(S(=O)(=O)O)cc4cc(S(=O)(=O)O)cc(N)c4c3O)c(C)c2)ccc1N=Nc1c(S(=O)(=O)O)cc2cc(S(=O)(=O)O)cc(N)c2c1O", "class 1"],
  ["CCCCCCCCCCCCCCCCCC[N+](C)(C)CCC[Si](OC)(OC)OC", "class 0"],
  ["O=C(CCCCCCCCCCCCC1CCCC1)Nc1ccc(S(=O)(=O)c2ccc(NC(=O)CCCCCCCCCCCCC3CCCC3)cc2)cc1", "class 0"],
  ["CCCCC/C=C\\C/C=C\\C/C=C\\CCCCC(=O)O", "class 0"],
  ["O=C(O)COc1ccccc1/C=N/NC(=O)c1ccncc1", "class 0"],
  ["C=C1c2c(Cl)ccc(O)c2C(O)=C2C(=O)[C@]3(O)C(O)=C(C(N)=O)C(=O)[C@@H](N(C)C)[C@@H]3[C@@H](O)[C@H]12", "class 0"]
]}

====

Test: Drug repurposing screens with cells derived from glioblastoma tumor samples (AID 1345199); also: nearly all actives have a fitted effect of over 40% in size; as to activity, negative = cell killing: % is scaled to controls: 0 for no effect and ±100 for the full control effect
Details: GBM patient neurospheres viability, ATP luminescence, 48 h; at 46 µM (top of the series); tumour line A
Inconclusive results are not listed. The source made the active and inactive calls. Calls follow the shape of the dose curve; as a rule, active = well fitted inhibition curve with a large enough effect; inconclusive = small, poorly fitted or top-dose-only effect; inactive = flat fitted curve, though single readings scatter.
Quick reference: activity, negative = cell killing of the listed items.

{"columns": ["Molecule", "activity, negative = cell killing"],
 "data": [
  ["CSCCC(N)C(=O)O (stereo unspecified)", "-11.9% (inactive)"],
  ["O=C1c2c(O)cccc2[C@H]([C@@H]2O[C@H](CO)[C@@H](O)[C@H](O)[C@H]2O)c2cc(CO)cc(O)c21", "-19.8% (inactive)"],
  ["C=N[C@@H](C(=O)N[C@@H]1C(=O)N2[C@@H]1SC(C)(C)[C@@H]2C(=O)O)c1ccccc1", "-8.19% (inactive)"],
  ["CC(=O)[C@@]1(O)CC[C@H]2[C@@H]3C=C(Cl)C4=CC(=O)[C@@H]5C[C@@H]5[C@]4(C)[C@H]3CC[C@@]21C", "-35.1% (inactive)"],
  ["CCCOC(=O)c1ccccc1O", "-23.3% (inactive)"],
  ["NC(=O)CC[C@@H]1NC(=O)[C@H](Cc2ccccc2)NC(=O)[C@H](Cc2ccc(O)cc2)NC(=O)[C@@H](N)CSSC[C@@H](C(=O)N2CCC[C@H]2C(=O)N[C@@H](CCCN=C(N)N)C(=O)NCC(N)=O)NC(=O)[C@H](CC(N)=O)NC1=O", "-23.2% (inactive)"],
  ["CC[C@H](CC[C@@H](C)[C@H]1CC[C@H]2[C@@H]3CC=C4C[C@@H](O)CC[C@]4(C)[C@H]3CC[C@]12C)C(C)C", "-16.4% (inactive)"],
  ["CC(C)(CO)[C@@H](O)C(=O)NCCCC(=O)O", "-3.96% (inactive)"],
  ["CC1(C)S[C@@H]2[C@H](N3C(=O)C(c4ccccc4)NC3(C)C)C(=O)N2[C@H]1C(=O)O (stereo partly specified)", "-5.42% (inactive)"],
  ["CC(=O)OCC(=O)[C@@]1(O)CC[C@H]2[C@@H]3CCC4=CC(=O)CC[C@]4(C)C3=CC[C@@]21C", "-15.3% (inactive)"],
  ["CCCCCCCCCCCCCCCC(=O)OC[C@H](COP(=O)([O-])OCC[N+](C)(C)C)OC(=O)CCCCCCCCCCCCCCC", "-32.2% (inactive)"]
]}

====

System: Tov112D
Assay: Primary qHTS to identify gynecologic anti-cancer compounds using libraries of approved drugs and bioactive compounds (AID 1345084); also: % is scaled to controls: 0 for no effect and ±100 for the full control effect; nearly all actives have a fitted effect of over 55% in size
Conditions: Gynecologic cancer cell panel viability, ATPlite luminescence, 48 h; series mostly up to 57.5 µM
Inconclusive results are not listed. Activity calls are given as the source filed them. The call rests on the fitted dose curve; in most records, active means well fitted cell-killing curve with a large enough effect; inconclusive means small, poorly fitted or top-dose-only effect, or effect the other way; inactive means flat fitted curve, though single readings scatter.

{"columns": ["Structure Smiles", "Target Or System", "outcome"],
 "data": [
  ["CO[C@H]1C[C@@H]2CC[C@@H](C)[C@@](O)(O2)C(=O)C(=O)N2CCCC[C@H]2C(=O)O[C@H]([C@H](C)C[C@@H]2CC[C@@H](OC(=O)C(C)(CO)CO)[C@H](OC)C2)CC(=O)[C@H](C)/C=C(\\C)[C@@H](O)[C@@H](OC)C(=O)[C@H](C)C[C@H](C)/C=C/C=C/C=C/1C", "Tov112D", "inactive"],
  ["O=C1c2ccccc2C(=O)c2c1ccc(O)c2O", "Tov112D", "inactive"],
  ["C=C1CC[C@H](O)CC1=C/C=C1\\CCC[C@]2(C)[C@@H]([C@H](C)/C=C/[C@H](C)C(C)C)CC[C@@H]12", "Tov112D", "inactive"]
]}

====

Test system: PC49
Experiment: qHTS profiling for inhibitors of Plasmodium falciparum proliferation (AID 504749); also: nearly all actives have a fitted effect of over 60% in size
Details: P. falciparum in erythrocytes, SYBR Green DNA, 72 h; series mostly up to 28.7 µM
Protocol: NIH National Institute of Allergy and Infectious Diseases [NIAID] NIH Chemical Genomics Center [NCGC] […] Because mature erythrocytes lack DNA, only Plasmodium-derived DNA is detected. NCGC Assay Protocol Summary: The SYBR Green viability assay was adapted from a method described previously (Plouffe et al., 2008). […] The following morning, fluorescence intensity at 485(14) nm excitation and 535(25) nm emission wavelengths was measured on an EnVision (Perkin Elmer) plate reader. […]
Inconclusive results are not listed. Active and inactive are the calls of the source. The call rests on the fitted dose curve; in most records, active means well fitted inhibition curve with a large enough effect; inconclusive means small, poorly fitted or top-dose-only effect; inactive means flat fitted curve, though single readings scatter.
Classes used: T = active, F = inactive

{"columns": ["Compound", "Label"],
 "data": [
  ["C[Si](C)(C)O[Si](C)(C)C", "F"],
  ["CN(CCO)CC(O)Cn1cnc2c1c(=O)n(C)c(=O)n2C (stereo not given) (tested in a mixture with another compound)", "F"],
  ["CC1(O)CCC(C(C)(C)O)CC1 (stereo not given)", "F"],
  ["O=C(O)C1=C(CSc2nnnn2CS(=O)(=O)O)CS[C@@H]2[C@H](NC(=O)[C@H](O)c3ccccc3)C(=O)N12", "F"],
  ["Nc1ncnc2c1ncn2CCOCP(=O)(O)O", "F"],
  ["CN=C1C=CC(=C(c2ccc(N(C)C)cc2)c2ccc(N(C)C)cc2)C=C1", "T"],
  ["O=C(Nc1ccc(O)cc1)c1ccccc1O", "F"],
  ["CCc1ccc(S(=O)(=O)O)cc1", "F"],
  ["CCc1ncnc2cc(OC)c(OC)cc12", "F"],
  ["CC(O)CN(C)C (stereo not given)", "F"],
  ["CCSc1ccc2c(c1)N(CCCN1CCN(C)CC1)c1ccccc1S2", "F"],
  ["CCCCCCCCCCCCCCCCOCCOCCOCCOCCOCCOCCOCCOCCOCCOCCOCCOCCOCCOCCOCCOCCOCCOCCOCCOCCO", "T"],
  ["Oc1cccc(O)c1O", "F"],
  ["CCCCCCCCCCCCCCCCCC(=O)OCC(C)O (stereo not given)", "F"],
  ["O=C(OCc1ccccc1)c1cccnc1", "F"],
  ["CC1=CCC2CC1C2(C)C (stereo not given)", "F"],
  ["O=c1[nH]c(=O)n([C@H]2C[C@H](O)[C@@H](CO)O2)cc1/C=C/Br", "F"],
  ["Cc1cc(-c2ccc(N=Nc3c(S(=O)(=O)O)cc4cc(S(=O)(=O)O)cc(N)c4c3O)c(C)c2)ccc1N=Nc1c(S(=O)(=O)O)cc2cc(S(=O)(=O)O)cc(N)c2c1O", "F"],
  ["Cc1c(Cl)cccc1Nc1ncccc1C(=O)O", "F"],
  ["CCCC(=O)O", "F"],
  ["CC1CCC(NC(=O)N(CCCl)N=O)CC1 (stereo not given)", "F"],
  ["CCCCCCOC(=O)c1cccnc1", "F"],
  ["O=C(O)/C=C/c1ccccc1", "F"],
  ["Cc1ccc(S(=O)(=O)NCl)cc1", "F"],
  ["C[Se]CC[C@H](N)C(=O)O", "F"]
]}
